# TGI listing for each entry below
System: MDA-MB-231 breast
Method Summary: NCI tumour cell line growth inhibition, 48 h

// below: answered molecules
Molecule: CC1=C(C)SC(=C2Sc3c(n(C)c(=O)[nH]c3=O)S2)S1
TGI: > 100 µM
--
Molecule: Cc1cc(Cl)nc(NC(=O)CSc2ccc(Cl)cc2)n1
TGI: > 100 µM
--
Molecule: CC(C)(C)CN1[C@@H]2CCCC[C@H]2N(CC(C)(C)C)P1(=O)Cc1ccccc1
TGI: 24.9 µM
--
Molecule: CCOC(=O)c1ccc2c(c1)nc1n2C(c2c(F)cccc2F)SC1 (centres undefined)
TGI: > 100 µM
--
Molecule: CCC1CCc2nc3sc(C(=O)Nc4ccccc4F)c(N)c3cc2C1 (centres undefined)
TGI: > 100 µM

stdin: For Cc1c(O)c(OC2OC(CO)C(O)C(O)C2O)cc2c1CC[C@@H]1C2(C)C(=O)C[C@]2(C)[C@@H]([C@@](C)(O)C(O)/C=C/C(C)(C)O)[C@H](O)C[C@@]12C (some centres undefined) , write its TGI.
stdout: > 100 µM

stdin: Respond only with TGI recorded for CO/C(=N/N1CC1C(F)(F)F)c1ccncc1 (centres undefined)
stdout: > 100 µM

stdin: Determine its reported TGI: O=c1[nH]cnc2c(C3OC(CO)C(O)C3O)[nH]nc12 (centres undefined)
stdout: > 100 µM

stdin: Tell me its TGI given COC(=O)[C@H](CCSC)NC(=O)c1ccc(CNC(=O)/C=C/c2cccc(Oc3ccccc3)c2)cc1 as the entry.
stdout: > 83.5 µM

stdin: In one line, give reported TGI of the entry COc1cc2c(c(OC)c1OC)-c1ccc(OC)c(=O)cc1[C@@H](NC(=O)CCl)CC2 .
stdout: > 46 µM

stdin: Supply measured TGI of Cc1cc(C)c2c(=O)cc(-c3ccc(Cl)cc3)[nH]c2n1 in your reply.
stdout: > 51.8 µM

* * *

Test system: DLD-1 colon
Method Summary: NCI tumour cell line growth inhibition, 48 h
Quantity Measured: TGI (µM)
Unit µM implied. Number only.

Molecule: CCC[CH2][Sn]1([CH2]CCC)[O]C(c2ccccn2)S(=O)(=O)[O]1 (stereo not given)
Quantity Measured: TGI
U: µM
Result Value: 12.7

stdin: Give recorded TGI. C=C(C)C(=O)NC(N)=NC#N
stdout: 261

* * *

System: SF-539 CNS
Method Summary: NCI tumour cell line growth inhibition, 48 h
Mark fulfilled for reported TGI of 3 µM or greater; mark not fulfilled for anything smaller.

Compound: Nc1ncc(-c2cnn(C3CCNCC3)c2)cc1-c1nc2ccccc2o1
Assigned Class: not fulfilled

Compound: CC(=O)O[C@H]1CC[C@H]2[C@@H]3CCc4cc(O)c(I)cc4[C@H]3CC[C@]12C
Assigned Class: fulfilled

Compound: CC(=O)[O-].CC(=O)[O-].[Mn+2].c1ccc(/C(=N\Nc2ccccn2)c2ccccn2)cc1
Assigned Class: not fulfilled

Compound: CCOC(=O)C(NNS(=O)(=O)c1ccc(C)cc1)S(=O)(=O)C(F)(F)C(F)(F)C(F)(F)C(F)(F)F (stereo not drawn)
Assigned Class: fulfilled

Compound: COc1cc(N2CCC(N3CCN(C)CC3)CC2)ccc1Nc1ncc(Cl)c(Nc2ccccc2P(C)(C)=O)n1
Assigned Class: fulfilled

Compound: CC(=O)[CH-]C(=O)c1ccccc1.CC(=O)[CH-]C(=O)c1ccccc1.O=C([O-])C[O-].O=C([O-])C[O-].[Ti+4]
Assigned Class: fulfilled

Compound: COc1cc2c(c(OC)c1OC)-c1ccc([O-])c(=O)cc1[C@@H](NC(C)=O)CC2.COc1cc2c(c(OC)c1OC)-c1ccc([O-])c(=O)cc1[C@@H](NC(C)=O)CC2.[Cu+2]
Assigned Class: fulfilled

Compound: CC(C#N)c1cn(S(=O)(=O)c2ccccc2)c2ccccc12 (stereo not drawn)
Assigned Class: fulfilled

Now take the following compound into account.
stdin: State whether the measured TGI reaches 3 µM, counting equality as reaching it, for O=C(O)CN1CCNCCN(CC(=O)O)CC1
stdout: fulfilled

* * *

System: A498 renal
Method Summary: NCI tumour cell line growth inhibition, 48 h
Quantity Measured: TGI

Sample records with TGI:
Compound: O=c1c2cccnc2[nH]c2ccc3scnc3c12
Assayed System: A498 renal
Quantity Measured: TGI
Result Value: > 10 µM

Compound: COc1ccccc1/C=C/C(=O)c1sc(-c2cccnc2)nc1C
Assayed System: A498 renal
Quantity Measured: TGI
Result Value: > 100 µM

Compound: CCc1ccccc1NC(=O)/C(CC(=O)c1c(C)n([O-])c2ccccc2[n+]1=O)=N\NS(=O)(=O)c1ccc(C)cc1
Assayed System: A498 renal
Quantity Measured: TGI
Result Value: > 100 µM

Compound: CN(C)CCOc1cc2c(c3ccccc13)-c1ccccc1C2=O
Assayed System: A498 renal
Quantity Measured: TGI
Result Value: 19.3 µM

Compound: O=C1O/C(=C\c2ccc(O)c(Br)c2)C(c2ccc(O)cc2)=C1Cl
Assayed System: A498 renal
Quantity Measured: TGI
Result Value: 77.7 µM

Compound: CC(C)(Cl)CCC1=C(Cl)C(=O)c2ccccc2C1=O
Assayed System: A498 renal
Quantity Measured: TGI
Result Value: 12 µM

Compound: O=c1oc2ccc(Cl)cc2c(=O)n1-c1ccc(Cl)cc1F
Assayed System: A498 renal
Quantity Measured: TGI
Result Value: 0.498 µM

Compound: Cc1nc(Nc2nnc(-c3cc([N+](=O)[O-])cc([N+](=O)[O-])c3C)o2)sc1C(=O)CC(=O)Cc1nc2ccc(Cl)cc2[nH]c1=O
Assayed System: A498 renal
Quantity Measured: TGI
Result Value: > 100 µM

stdin: Quickly give me recorded TGI for CCCCCCCC[N+](C)(C)Cc1ccc(C[N+](C)(C)CCCCCCCC)cc1
stdout: > 100 µM

stdin: Entry COc1cc2c(c(OC)c1OC)-c1ccc(OC)c(=O)cc1[C@@H](NC(=O)CCl)CC2 needs its TGI filled in; supply it.
stdout: 0.164 µM

* * *

Test system: HT29 colon
Method Summary: NCI tumour cell line growth inhibition, 48 h
Measured GI50, listed per entry for reference.

stdin: Please give the documented GI50 of C=C(C)C(=O)NC(N)=NC#N
stdout: 102 µM

* * *

Test system: SK-MEL-28 melanoma
Method Summary: NCI tumour cell line growth inhibition, 48 h
Recorded TGI values for a group of compounds are listed next.

Here are 5 compounds together with their reported answers.
Compound: CC(=O)CC(=O)N(CCN(C(=O)CC(C)=O)c1ccccc1)c1ccccc1
TGI: > 100 µM
--
Compound: COc1cc2c(c(OC)c1OC)-c1ccc(OC)c(=O)cc1[C@@H](NC(=O)CCl)CC2
TGI: 53.8 µM
--
Compound: CCCCCCCCCCCCCCCCOP(=O)(O)OP(=O)(O)OCC1OC(n2ccc(N)nc2=O)CC1O (stereo not given)
TGI: > 100 µM
--
Compound: O=c1c(O)c(-c2ccc(O)c(O)c2)oc2cc(O)ccc12
TGI: > 58.4 µM
--
Compound: COC(=O)C1([C@@H]2C[C@@H](O)[C@]3(C)CC/C=C(\C)CCC[C@H](C)[C@H](O)[C@@H]2O3)CC1
TGI: > 100 µM

stdin: For the compound CCCCOC(=O)CN1C(=O)c2ccccc2C1=O , give its measured TGI value.
stdout: > 100 µM

stdin: Give the value of TGI reported for the following: COc1cccc2c1C(=O)C(=O)c1c-2oc(=O)c2cc(C)cc(OC)c12
stdout: > 75 µM

stdin: # return recorded TGI for entry COc1ccc2cc(C(=O)c3ccccc3C(=O)O)ccc2c1
stdout: > 100 µM

stdin: Fill in reported TGI for this entry: Cc1cc(Cl)ccc1Nc1sc(C(=O)c2cc3cc(Cl)ccc3o2)c(N)c1C#N
stdout: > 100 µM

stdin: Given CC(=O)N1NC(c2ccccc2)=CC(=O)/C1=C/C(=O)c1ccccc1 , respond with its TGI.
stdout: > 100 µM

* * *

Reported values of TGI for individual entries
Test system: RPMI-8226 leukemia
Method Summary: NCI tumour cell line growth inhibition, 48 h
Enter your answer as a number in µM; do not include the unit.

Some entries whose results are on file:
Compound: CC(=O)O[C@H]1CC[C@H]2[C@@H]3CCc4cc(O)c(I)cc4[C@H]3CC[C@]12C
TGI, µM: 41.9

Compound: CC1=CC(C)C(C)N(CCNC(=O)Nc2ccccc2)c2ccccc21 (stereo not given)
TGI, µM: 51.8

stdin: Provide one value: measured TGI of CCOC(=O)/C(=C/c1ccc(OC)c(OC)c1)C(=O)c1ccccc1
stdout: 39.1

stdin: Provide one value: measured TGI of O=C1C2CC3C(CC2C(=O)[N]1[Sn]([c]1ccccc1)([c]1ccccc1)[c]1ccccc1)C1(Cl)C(Cl)=C(Cl)C3(Cl)C1(Cl)Cl (stereo not given)
stdout: 0.53

stdin: Please give the documented TGI of COc1cc(N2CCC(N3CCN(C)CC3)CC2)ccc1Nc1ncc(Cl)c(Nc2ccccc2P(C)(C)=O)n1
stdout: 39.8

stdin: Tell me TGI reported for N=c1nc(N)c2cc3c(N)nc(=N)c3cc12
stdout: 23.9
